Test: Liver S9 stability determination
Type: in vitro ADME
Conditions: human liver S9 fraction, 1 μM compound, 37° C., up to 120 mins; read-out: liver S9 t1/2
observation_type: half-life at 1 μM (min)
Answers are plain numbers, in min.

Incoming: Recorded half-life at 1 μM for COc1nc(N)nc2c1ncn2[C@@H]1O[C@H](CO[P@@](=O)(N[C@@H](C)C(=O)OC(C)C)Oc2ccccc2)[C@@H](O)[C@@]1(C)F [Comparative Example 4, reference compound] , please?
Outgoing: 18

====

Assay: CCK8 cytotoxicity assay in HepG2 cells
Format: cell-based
Conditions: human, CCK-8
Description: HepG2 cells were trypsinized, washed, counted and diluted to 1.6×10^4 cells/ml in DMEM-W/O Glucose, supplemented with 10% Fetal bovine serum (FBS), 1% Penicillin/Streptomycin, 2 mM HEPES, 1 mM Sodium Pyruvate, 10 mM Galactose & 2 mM Glutamine. […] Cytotoxicity was measured by CCK-8 assay. […] The absorbance was read by Envision at 450 nm. Dose response curves were calculated as in the previous section. […]
Please provide measured CC50 at 96 h for the entries that follow.

CCOC(=O)[C@@H](N[P@]1(=O)OC[C@H]2O[C@@H](n3cnc4c(OCC)nc(N)nc43)[C@](C)(F)[C@@H]2O1)C(C)C; > 50 µM

Quick batch: CC50 at 96 h for everything below.
1. CCOc1nc(N)nc2c1ncn2[C@@H]1O[C@@H]2CO[P@](=O)(N[C@@H](C)C(=O)OC)O[C@H]2[C@@]1(C)F
2. COC(=O)[C@H](C)N[P@@]1(=O)OC[C@H]2O[C@@H](n3cnc4c(OC(C)C)nc(N)nc43)[C@](C)(F)[C@@H]2O1

Outgoing:
> 50 µM
> 50 µM
